# IC50 per entry for Vascular endothelial growth factor receptor 2 (Homo sapiens, UniProt P35968)
Form entry: value (nM) — number only.

The following molecules have reported results that may help.
COc1cc2ncnc(Oc3ccc(NC(=O)Nc4ccc(Cl)c(C(F)(F)F)c4)cc3)c2c2c1OCCO2    2.4
O=C(Nc1ccc(Oc2ncnc3cc(OCCCN4CCOCC4)c4c(c23)OCCO4)c(F)c1)Nc1cc(C(F)(F)F)ccc1F    3.4

Lab request: please report IC50 under test system Vascular endothelial growth factor receptor 2 (Homo sapiens, UniProt P35968) for COc1cc2ncnc(Oc3ccc(NC(=O)Nc4cc(C(F)(F)F)ccc4F)cc3)c2c2c1OCCO2
1.5

----------
- System: SMMC-7721
- experiment-summary: Antiproliferative activity against human SMMC7721 cells incubated for 72 hrs by CCK8 assay
- Assay type: functional, cell-based
- condition-details: SMMC-7721, 72 h
observed-property: pIC50
Quick note: pIC50 means taking -log10 of the concentration in moles per liter.

Quick one: pIC50 of COc1cc2ncnc(Oc3ccc(NC(=O)Nc4ccc(Cl)c(C(F)(F)F)c4)cc3)c2c2c1OCCO2 ?
6.43
